Parameter IC50: see the listing below.
Target: Diacylglycerol lipase-alpha (Mus musculus, UniProt Q6WQJ1)
Sequence (Q6WQJ1 whole entry): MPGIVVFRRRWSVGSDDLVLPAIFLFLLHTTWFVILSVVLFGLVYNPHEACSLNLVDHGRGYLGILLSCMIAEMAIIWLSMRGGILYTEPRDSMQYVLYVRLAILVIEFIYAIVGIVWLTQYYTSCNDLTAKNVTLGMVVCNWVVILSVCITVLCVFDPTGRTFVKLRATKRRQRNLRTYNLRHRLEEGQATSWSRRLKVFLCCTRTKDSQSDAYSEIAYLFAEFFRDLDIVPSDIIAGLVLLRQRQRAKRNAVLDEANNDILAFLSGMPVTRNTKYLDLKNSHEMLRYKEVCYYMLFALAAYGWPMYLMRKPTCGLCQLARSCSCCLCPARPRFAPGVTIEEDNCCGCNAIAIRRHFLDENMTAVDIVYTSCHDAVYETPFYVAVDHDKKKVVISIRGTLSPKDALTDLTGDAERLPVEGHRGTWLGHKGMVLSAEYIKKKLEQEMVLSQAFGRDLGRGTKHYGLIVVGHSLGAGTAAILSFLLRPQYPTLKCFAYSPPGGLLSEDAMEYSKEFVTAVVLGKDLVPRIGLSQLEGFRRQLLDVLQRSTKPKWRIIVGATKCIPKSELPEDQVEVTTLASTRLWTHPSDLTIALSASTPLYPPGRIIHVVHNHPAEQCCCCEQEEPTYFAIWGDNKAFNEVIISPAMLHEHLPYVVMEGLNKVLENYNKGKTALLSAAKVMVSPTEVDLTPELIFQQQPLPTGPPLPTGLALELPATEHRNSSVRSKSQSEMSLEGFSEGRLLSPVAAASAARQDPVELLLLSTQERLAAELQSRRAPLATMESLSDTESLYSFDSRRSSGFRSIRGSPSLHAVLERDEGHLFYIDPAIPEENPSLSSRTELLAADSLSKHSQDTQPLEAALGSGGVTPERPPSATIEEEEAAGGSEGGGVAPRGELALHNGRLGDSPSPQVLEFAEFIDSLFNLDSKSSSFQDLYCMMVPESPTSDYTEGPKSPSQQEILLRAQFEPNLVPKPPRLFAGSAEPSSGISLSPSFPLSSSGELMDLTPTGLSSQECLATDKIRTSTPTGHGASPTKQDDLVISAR
Assay: Inhibition of DAGLalpha in mouse brain proteome pre-incubated for 30 mins followed by ABP MB064 probe addition for 15 mins by ABPP assay

Solved entries (count: 2):
smiles_code: Cc1ccc(-c2cnc3nc(C(=O)CCCCCc4ccccc4)oc3c2)cc1
IC50: 0.0251 µM
--
smiles_code: CC1(C)CCc2cc(S(=O)(=O)N(CC(=O)O)Cc3ccc(Oc4ccccc4)cc3)ccc2O1
IC50: 0.126 µM

Req: What is its IC50 for Diacylglycerol lipase-alpha (Mus musculus, UniProt Q6WQJ1)? Entry: `O=C(CCCCCc1ccccc1)c1nc2ncccc2o1`
Resp: 0.501 µM

====

biological target: Diacylglycerol lipase-beta (Mus musculus, UniProt Q91WC9); assay: Inhibition of mouse DAGLbeta expressed in HEK293T cell membranes using SAG as substrate preincubated for 20 mins followed by substrate addition by enzyme coupled natural substrate assay
Sequence (Q91WC9 whole entry): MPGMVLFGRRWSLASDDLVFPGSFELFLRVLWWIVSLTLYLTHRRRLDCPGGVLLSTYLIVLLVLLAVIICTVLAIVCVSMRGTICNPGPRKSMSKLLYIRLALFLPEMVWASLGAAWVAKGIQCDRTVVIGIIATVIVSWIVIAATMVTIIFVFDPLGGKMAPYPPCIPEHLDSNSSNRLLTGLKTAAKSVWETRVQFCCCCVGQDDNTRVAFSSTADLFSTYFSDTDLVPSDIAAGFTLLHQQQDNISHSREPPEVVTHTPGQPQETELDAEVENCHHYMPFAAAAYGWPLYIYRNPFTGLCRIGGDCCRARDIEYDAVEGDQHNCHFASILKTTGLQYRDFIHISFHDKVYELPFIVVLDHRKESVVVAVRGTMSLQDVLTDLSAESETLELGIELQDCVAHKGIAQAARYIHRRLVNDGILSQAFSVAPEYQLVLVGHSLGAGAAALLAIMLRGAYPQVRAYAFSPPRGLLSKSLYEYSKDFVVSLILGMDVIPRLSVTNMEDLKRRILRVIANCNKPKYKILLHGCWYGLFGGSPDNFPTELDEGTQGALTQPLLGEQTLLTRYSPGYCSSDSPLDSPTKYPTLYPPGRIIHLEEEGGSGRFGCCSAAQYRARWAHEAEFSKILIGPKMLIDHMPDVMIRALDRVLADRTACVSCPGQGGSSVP
reported_metric: IC50 (nM)
Express your answer in nM, writing the number without its unit.

Req: What is its IC50 for Diacylglycerol lipase-beta (Mus musculus, UniProt Q91WC9)? Entry: CC(C)(C)OC(=O)N1CCN(C(=O)n2cc(-c3ccc(OC(F)(F)F)cc3)nn2)C(Cc2ccccc2)C1 (stereo unspecified)
Resp: 7.94

====

biological target: Diacylglycerol lipase-beta (Mus musculus); experiment: Inhibition mouse DAGLbeta expressed in HEK293T cell membrane fractions using DAG as substrate preincubated for 30 mins followed by ABP HT01 probe addition measured after 30 mins in presence of probe by gel-based ABPP competition assay
pIC50: −log10 of the molar value.
Mark FALSE for pIC50 values under 7, and TRUE for everything at or above.

compound: CC(C)(C)OC(=O)N1CCN(C(=O)n2cc(-c3ccc(OC(F)(F)F)cc3)nn2)C(Cc2ccccc2)C1 (stereo not given)
cat: TRUE

compound: CCCCCCCCCCCC(C[C@@H]1OC(=O)[C@H]1CCCCCC)OC(=O)[C@H](CC(C)C)NC=O (stereo not given in full)
cat: FALSE

compound: O=C(N1CCCCC1Cc1ccccc1)n1cc(-c2ccc(-c3ccccc3)cc2)nn1 (stereo not given)
cat: TRUE

Req: Answer whether pIC50 of `C#CCO[C@@H]1CC[C@H](Cc2ccccc2)N(C(=O)n2ncc(C(O)(c3ccc(F)cc3)c3ccc(F)cc3)n2)C1` is greater than or equal to 7.
Resp: TRUE

====

biological target: Diacylglycerol lipase-alpha (Homo sapiens, UniProt Q9Y4D2); test: Inhibition of human C-terminal HA-tagged DAGLalpha expressed in HEK293F cell membrane fractions using DiFMU-octanoate as substrate by fluorogenic surrogate substrate assay
Sequence (Q9Y4D2 whole entry): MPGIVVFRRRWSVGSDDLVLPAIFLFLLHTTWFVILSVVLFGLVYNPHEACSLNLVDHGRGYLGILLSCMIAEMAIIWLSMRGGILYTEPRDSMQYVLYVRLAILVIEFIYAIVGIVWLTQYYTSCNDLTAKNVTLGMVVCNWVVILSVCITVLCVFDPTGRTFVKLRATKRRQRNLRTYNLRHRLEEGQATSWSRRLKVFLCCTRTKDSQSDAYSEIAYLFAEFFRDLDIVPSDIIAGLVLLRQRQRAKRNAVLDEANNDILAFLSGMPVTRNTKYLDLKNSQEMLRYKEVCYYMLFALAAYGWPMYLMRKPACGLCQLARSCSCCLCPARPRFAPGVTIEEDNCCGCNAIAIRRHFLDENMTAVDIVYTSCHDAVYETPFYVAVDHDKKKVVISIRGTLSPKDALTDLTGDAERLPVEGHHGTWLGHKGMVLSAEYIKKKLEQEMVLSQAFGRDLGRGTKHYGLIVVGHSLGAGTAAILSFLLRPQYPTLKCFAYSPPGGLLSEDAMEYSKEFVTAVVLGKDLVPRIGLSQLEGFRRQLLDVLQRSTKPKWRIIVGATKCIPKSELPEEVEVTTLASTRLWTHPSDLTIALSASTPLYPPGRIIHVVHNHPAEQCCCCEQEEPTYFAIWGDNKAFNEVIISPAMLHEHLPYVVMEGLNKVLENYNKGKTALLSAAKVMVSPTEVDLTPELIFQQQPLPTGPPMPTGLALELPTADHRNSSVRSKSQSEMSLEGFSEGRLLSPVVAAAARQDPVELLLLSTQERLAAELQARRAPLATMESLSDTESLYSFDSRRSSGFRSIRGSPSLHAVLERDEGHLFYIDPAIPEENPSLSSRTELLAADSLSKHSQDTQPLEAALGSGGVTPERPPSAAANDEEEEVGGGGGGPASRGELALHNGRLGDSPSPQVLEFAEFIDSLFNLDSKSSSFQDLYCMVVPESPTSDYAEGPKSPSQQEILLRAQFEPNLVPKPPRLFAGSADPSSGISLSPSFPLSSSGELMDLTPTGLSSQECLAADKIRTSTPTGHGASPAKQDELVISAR
reported_metric: IC50 (µM)
Kindly answer with a numeric value in µM, unit omitted.

Req: What value of measured IC50 is listed for `O=C(NCCCCCCNC(=O)ON=C1CCCCC1)ON=C1CCCCC1` ?
Resp: 25.1

====

molecular target: Diacylglycerol lipase-beta (Mus musculus); experiment: Inhibition of V-tagged mouse DAGLbeta expressed in […] cell membrane fractions using SAG as substrate assessed as accumulation of 2-AG preincubated for 30 mins followed by substrate addition measured after 30 mins by LC-MS natural substrate assay
reported_metric: pIC50
Here pIC50 is given on a logarithmic scale as minus log10 of the concentration in mol/L.

molecule: COc1ccccc1-c1ccc(-c2cn(C(=O)N3CCCCC3Cc3ccccc3)nn2)cc1 (configuration not stated)
system_tested: Diacylglycerol lipase-beta (Mus musculus)
pIC50: 7.10

Read the next record carefully.
Req: // map O=C(N1CCCCC1Cc1ccccc1)n1cc(-c2ccc(-c3ccccc3)cc2)nn1 (configuration not stated) to recorded pIC50 (system: Diacylglycerol lipase-beta (Mus musculus))
Resp: 7.10

====

target: Diacylglycerol lipase-alpha (Homo sapiens, UniProt Q9Y4D2); assay: Inhibition of human DAGLalpha expressed in HEK293T cell membrane fractions using PNP butyrate as substrate preincubated for 20 mins followed by substrate addition by colorimetric surrogate substrate assay
reported_metric: IC50 (nM)
Output spec: scalar in nM, unitless text.

Req: Which IC50 is reported with Diacylglycerol lipase-alpha (Homo sapiens, UniProt Q9Y4D2) for this entry: `Cc1ccc(-c2cnc3nc(C(=O)CCCCCc4ccccc4)oc3c2)cc1` ?
Resp: 3.16

====

target: Diacylglycerol lipase-alpha (Homo sapiens); experiment: Inhibition of human C-terminal HA-tagged DAGLalpha expressed in HEK293F cell membrane fractions using PNP butyrate as substrate by colorimetric surrogate substrate assay
reported_metric: IC50 (µM)
Expressed in µM, but write only the number.

Req: Tell me the measured IC50 of `O=C(NCCCCCCNC(=O)ON=C1CCCCC1)ON=C1CCCCC1` , please.
Resp: 5.01

====

biological target: UniProt:Q91WC9; test: Inhibition of full length 3' FLAG-tagged mouse DAGLbeta expressed in African green monkey COS7 cells using sn-1-stearoyl-[14C]-arachidonoyl-glycerol as substrate preincubated for 15 mins followed by substrate addition measured after 30 mins by radiometric natural substrate assay; assay type: cell-based
reported_metric: pIC50
The scale used: pIC50 is minus the common logarithm of the concentration in molar units.

Req: Which pIC50 value belongs to CCCCCCCCCCCC(C[C@@H]1OC(=O)[C@H]1CCCCCC)OC(=O)[C@H](CC(C)C)NC=O (stereo partly specified) ?
Resp: 7.00

====

target: Diacylglycerol lipase-alpha (Homo sapiens, UniProt Q9Y4D2); assay: Inhibition human DAGLalpha expressed in HEK293T cell membrane fractions using DAG as substrate preincubated for 30 mins followed by ABP HT01 probe addition measured after 30 mins in presence of probe by gel-based ABPP competition assay
reported_metric: pIC50
Reminder that pIC50 is minus the log10 of a molar concentration.

compound: O=C(N1CCCCC1Cc1ccccc1)n1cc(-c2ccc(-c3ccccc3)cc2)nn1 (centres undefined)
pIC50: 5.60
--
compound: CC(C)(C)OC(=O)N1CCN(C(=O)n2cc(-c3ccc(OC(F)(F)F)cc3)nn2)C(Cc2ccccc2)C1 (centres undefined)
pIC50: 9.30

Req: State the recorded pIC50 for this entry: `C#CCO[C@@H]1CC[C@H](Cc2ccccc2)N(C(=O)n2ncc(C(O)(c3ccc(F)cc3)c3ccc(F)cc3)n2)C1`
Resp: 8.90

Req: Record request: pIC50 value, item COc1ccccc1-c1ccc(-c2cn(C(=O)N3CCCCC3Cc3ccccc3)nn2)cc1 (centres undefined)
Resp: 6.90

====

biological target: Cannabinoid receptor 1 (Homo sapiens, UniProt P21554)
Sequence (P21554 whole entry): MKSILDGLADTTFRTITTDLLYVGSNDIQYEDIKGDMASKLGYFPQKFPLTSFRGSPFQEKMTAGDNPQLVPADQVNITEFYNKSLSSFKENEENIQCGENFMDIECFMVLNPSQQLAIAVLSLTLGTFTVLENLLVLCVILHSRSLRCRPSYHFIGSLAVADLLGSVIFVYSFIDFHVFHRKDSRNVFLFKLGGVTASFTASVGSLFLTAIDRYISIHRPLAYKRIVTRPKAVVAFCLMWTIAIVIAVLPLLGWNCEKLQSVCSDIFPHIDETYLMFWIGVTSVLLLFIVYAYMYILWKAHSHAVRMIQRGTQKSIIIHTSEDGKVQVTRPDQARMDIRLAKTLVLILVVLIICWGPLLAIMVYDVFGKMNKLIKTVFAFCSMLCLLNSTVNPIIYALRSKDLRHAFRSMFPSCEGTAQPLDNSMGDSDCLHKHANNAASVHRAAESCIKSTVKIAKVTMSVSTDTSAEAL
reported_metric: Ki (µM)
# output: bare number, implied unit µM

Req: Report Ki for CCCCCCCCCCCC(C[C@@H]1OC(=O)[C@H]1CCCCCC)OC(=O)[C@@H](NC=O)C(C)CC (stereo partly specified) please.
Resp: 6
